This section presents compounds with their documented Test C rating (% disease control) values.
- System: Phytophthora infestans
- Type: in vivo
- RUN CONDITIONS: tomato late blight, sprayed 17 h after inoculation; "*" compound tested at 40 ppm
A number alone suffices; assume %.

Worked set:
- CNC(=Nc1cc(C)ccc1C)N1CCC(c2nc(C3=NOC(c4ccccc4)C3)cs2)CC1 (centres unmarked) [compound 28]: 0
- CC(C)C(O)C(=O)N1CCC(c2nc(C3=NOC(c4c(F)cccc4F)C3)cs2)CC1 (centres unmarked) [compound 49]: 100
- O=C(CC1CCCC(C(F)(F)F)C1)N1CCC(c2nc(C3=NOC(c4c(F)cccc4F)C3)cs2)CC1 (centres unmarked) [compound 76]: 0

Consider the compound O=C(NCC1CCCCC1)N1CCC(c2nc(C3=NOC(c4ccccc4)C3)cs2)CC1 (centres unmarked) [compound 20] and give its measured Test C rating (% disease control).
93

For the compound Cc1ccc(C)c(N=C(NC#N)N2CCC(c3nc(C4=NOC(c5c(F)cccc5F)C4)cs3)CC2)c1 (centres unmarked) [compound 42] , what Test C rating (% disease control) is on record?
99

Consider the compound N#CCC(=O)N1CCC(c2nc(C3=NOC(c4c(F)cccc4F)C3)cs2)CC1 (centres unmarked) [compound 63] and give its measured Test C rating (% disease control).
92

Requested read-out: Test C rating (% disease control). Entry: CSC(=Nc1cc(C)ccc1C)N1CCC(c2nc(C3=NOC(c4c(F)cccc4F)C3)cs2)CC1.I (centres unmarked) [compound 26]
93

Quick one: Test C rating (% disease control) for CCCCC(O)C(=O)N1CCC(c2nc(C3=NOC(c4c(F)cccc4F)C3)cs2)CC1 (centres unmarked) [compound 58] ?
99

----------
- System: Phytophthora infestans
- Format: in vivo
- RUN CONDITIONS: tomato late blight, sprayed the day before inoculation; "*" compound tested at 40 ppm
Each entry below lists one item and its recorded Test B rating (% disease control) value.
Quick reminder: number only, in %, skip the unit.

Below, 3 compounds whose answers are already recorded.
• CCCC(=O)C(=O)N1CCC(c2nc(C3=NOC(c4c(F)cccc4F)C3)cs2)CC1 (stereo not shown) = 100
• Cc1ccc(C)c(C(=O)C(=O)N2CCC(c3nc(C4=NOC(c5c(F)cccc5F)C4)cs3)CC2)c1 (stereo not shown) = 100
• CSC(=Nc1cc(C)ccc1C)N1CCC(c2nc(C3=NOC(c4c(F)cccc4F)C3)cs2)CC1.I (stereo not shown) = 100

We now examine a further compound.
# query: Test B rating (% disease control) | item O=C(C(=O)N1CCC(c2nc(C3=NOC(c4ccccc4F)C3)cs2)CC1)c1ccco1 (stereo not shown) | system: Phytophthora infestans
33

----------
- Tested on: Phytophthora infestans
- Assay type: in vivo
- RUN CONDITIONS: tomato late blight, sprayed the day before inoculation; "*" compound tested at 40 ppm
// classify: if (Test B rating (% disease control) < 60%) TRUE else FALSE

Use these answered entries as a reference point.
* O=C(CC1CCCC(C(F)(F)F)C1)N1CCC(c2nc(C3=NOC(c4c(F)cccc4F)C3)cs2)CC1 (stereo not shown) | FALSE
* Cc1ccc(C)c(N=C(N2CCOCC2)N2CCC(c3nc(C4=NOC(c5ccccc5)C4)cs3)CC2)c1 (stereo not shown) | FALSE
* CC(C)C(O)C(=O)N1CCC(c2nc(C3=NOC(c4c(F)cccc4F)C3)cs2)CC1 (stereo not shown) [compound 49] | FALSE
* Cc1ccc(C)c(C(=O)NC(=O)N2CCC(c3nc(C4=NOC(c5c(F)cccc5F)C4)cs3)CC2)c1 (stereo not shown) | FALSE
* Cc1cc(C(F)(F)F)nn1C(=O)C(=O)N1CCC(c2nc(C3=NOC(c4ccccc4F)C3)cs2)CC1 (stereo not shown) | TRUE
* Cc1ccc(C)c(N=C(N(C)C)N2CCC(c3nc(C4=NOC(c5c(F)cccc5F)C4)cs3)CC2)c1 (stereo not shown) | TRUE

Consider the molecule Cc1ccc(C)c(N=C(NC#N)N2CCC(c3nc(C4=NOC(c5c(F)cccc5F)C4)cs3)CC2)c1 (stereo not shown) . Is its Test B rating (% disease control) strictly less than 60%?
FALSE

Where do these numbers come from? They come from patent US8349870B2.
